As shown below, each of these molecules has a reported CLint scaled value.
# Experiment Description: Intrinsic clearance in dog liver microsomes
# Type: ADME, Canis lupus familiaris, Microsome
# Cond: read-out: CLH

C[C@@H]1Cc2nn3c(c2CN1C(=O)Nc1ccc(F)c(C#N)c1)C(=O)N(C)C[C@@H](F)C3 < 6 mL/min/kg

For the next question, use this molecule.
Qu. # query: CLint scaled of entry C[C@@H]1Cc2nn3c(c2CN1C(=O)Nc1ccc(F)c(C#N)c1)C(=O)N(C)C[C@H](F)C3
Ans. < 8 mL/min/kg

* * *

# Experiment Description: Intrinsic clearance in mouse hepatocytes
# Type: ADME, cell-based, Hepatocyte
# Cond: read-out: CLH
Recorded Endpoint: CLint scaled (mL/min/kg)
I only need the number, in mL/min/kg, no unit after it.

Qu. # query: CLint scaled of entry C[C@@H]1Cc2nn3c(c2CN1C(=O)Nc1ccc(F)c(C#N)c1)C(=O)N(C)C[C@@H](F)C3
Ans. 101

* * *

# Experiment Description: Cmax in Beagle dog at 2.5 mg/kg, po
# Format: ADME, organism-based, Canis lupus familiaris
# Design: dose 2.5 mg/kg, route po
# Cond: in vivo
Recorded Endpoint: Cmax (ng/mL)
I only need the number, in ng/mL, no unit after it.

Qu. # query: Cmax of entry C[C@@H]1Cc2nn3c(c2CN1C(=O)Nc1ccc(F)c(C#N)c1)C(=O)N(C)C[C@@H](F)C3
Ans. 1150

* * *

# Experiment Description: Tmax in rat at 5 mg/kg, po
# Type: ADME, organism-based
# Cond: in vivo
Recorded Endpoint: Tmax (h)
I only need the number, in h, no unit after it.

Qu. # query: Tmax of entry C[C@@H]1Cc2nn3c(c2CN1C(=O)Nc1ccc(F)c(C#N)c1)C(=O)N(C)C[C@@H](F)C3
Ans. 1.33

* * *

# Experiment Description: Protein binding in human plasma
# Format: ADME, cell-free
# Cond: read-out: PPB (converted)
Recorded Endpoint: fraction unbound
No unit in the answer, only the number.

Qu. # query: fraction unbound of entry C[C@@H]1Cc2nn3c(c2CN1C(=O)Nc1ccc(F)c(C#N)c1)C(=O)N(C)C[C@@H](F)C3
Ans. 0.19

* * *

# Experiment Description: AUC (0 to infinity) in rat at 5 mg/kg, po
# Assay type: ADME, organism-based
# Parameters: time infinity, dose 5 mg/kg, route po
# Cond: in vivo
Recorded Endpoint: AUC(0-inf) (ng·h/mL)
I only need the number, in ng·h/mL, no unit after it.

Qu. # query: AUC(0-inf) of entry C[C@@H]1Cc2nn3c(c2CN1C(=O)Nc1ccc(F)c(C#N)c1)C(=O)N(C)C[C@@H](F)C3
Ans. 697

* * *

# Experiment Description: Lipophilicity, log D of compound
# Assay type: physicochemical
# Cond: octanol/water
As shown below, each of these compounds has a reported logD value.
No unit in the answer, only the number.

Qu. # query: logD of entry C[C@@H]1Cc2nn3c(c2CN1C(=O)Nc1ccc(F)c(C#N)c1)C(=O)N(C)C[C@@H](F)C3
Ans. 1.95

Qu. # query: logD of entry C[C@@H]1Cc2nn3c(c2CN1C(=O)Nc1ccc(F)c(C#N)c1)C(=O)N(C)C[C@H](F)C3
Ans. 1.96

* * *

# Experiment Description: Tmax in Beagle dog at 2.5 mg/kg, po
# Type: ADME, organism-based, Canis lupus familiaris
# Cond: in vivo
Recorded Endpoint: Tmax (h)
I only need the number, in h, no unit after it.

Qu. # query: Tmax of entry C[C@@H]1Cc2nn3c(c2CN1C(=O)Nc1ccc(F)c(C#N)c1)C(=O)N(C)C[C@@H](F)C3
Ans. 2

* * *

# Experiment Description: AUC (0 to infinity) in mouse at 10 mg/kg, po
# Format: ADME, organism-based
# Set-up: time infinity, dose 10 mg/kg, route po
# Cond: in vivo
Recorded Endpoint: AUC(0-inf) (ng·h/mL)
I only need the number, in ng·h/mL, no unit after it.

Qu. # query: AUC(0-inf) of entry C[C@@H]1Cc2nn3c(c2CN1C(=O)Nc1ccc(F)c(C#N)c1)C(=O)N(C)C[C@@H](F)C3
Ans. 1930

* * *

As shown below, each of these molecules has a reported CLint scaled value.
# Experiment Description: Intrinsic clearance in human liver microsomes
# Type: ADME, Microsome
# Cond: read-out: CLH
I only need the number, in mL/min/kg, no unit after it.

Use these answered entries as a reference point.
Molecule	Unit Label	Quantitative Readout
CN1CC(F)Cn2nc3c(c2C1=O)CN(C(=O)Nc1ccc(F)c(Cl)c1)CC3 (racemic)	mL/min/kg	12
CN1CC(C(F)F)Cn2nc3c(c2C1=O)CN(C(=O)Nc1ccc(F)c(Cl)c1)CC3 (racemic)	mL/min/kg	15
CN1CCn2nc3c(c2C1=O)CN(C(=O)Nc1ccc(F)c(Cl)c1)CC3	mL/min/kg	26
CN1CC(N(C)C)Cn2nc3c(c2C1=O)CN(C(=O)Nc1ccc(F)c(Cl)c1)CC3 (racemic)	mL/min/kg	14
CN1C(=O)c2c3c(nn2CCC1CO)CCN(C(=O)Nc1ccc(F)c(Cl)c1)C3 (racemic)	mL/min/kg	9
CN1CCC(CO)n2nc3c(c2C1=O)CN(C(=O)Nc1ccc(F)c(Cl)c1)CC3 (racemic)	mL/min/kg	4.7
CC1CN(C)C(=O)c2c3c(nn2C1)CCN(C(=O)Nc1ccc(F)c(Cl)c1)C3 (racemic)	mL/min/kg	28
CN1CC(OCC(F)F)Cn2nc3c(c2C1=O)CN(C(=O)Nc1ccc(F)c(Cl)c1)CC3 (racemic)	mL/min/kg	5.4
CN1CCCn2nc3c(c2C1=O)CN(C(=O)Nc1ccc(F)c(Cl)c1)CC3	mL/min/kg	11
CN1CC(F)(F)Cn2nc3c(c2C1=O)CN(C(=O)Nc1ccc(F)c(Cl)c1)CC3	mL/min/kg	8.1

Qu. # query: CLint scaled of entry CN1CC(F)Cn2nc3c(c2C1=O)CN(C(=O)Nc1ccc(F)c(Br)c1)CC3 (racemic)
Ans. 22

Qu. # query: CLint scaled of entry CN1CC(F)Cn2nc3c(c2C1=O)CN(C(=O)Nc1ccc(F)c(C#N)c1)CC3 (racemic)
Ans. 5.2

Qu. # query: CLint scaled of entry CN1CCCCn2nc3c(c2C1=O)CN(C(=O)Nc1ccc(F)c(Cl)c1)CC3
Ans. 16

Qu. # query: CLint scaled of entry CN1CC(F)Cn2nc3c(c2C1=O)CN(C(=O)Nc1ccc(F)c(C(F)(F)F)c1)CC3 (racemic)
Ans. 17

Qu. # query: CLint scaled of entry CN1CC(F)Cn2nc3c(c2C1=O)CN(C(=O)Nc1ccnc(Br)c1F)CC3 (racemic)
Ans. 5

* * *

# Experiment Description: Intrinsic clearance in rat liver microsomes
# Assay type: ADME, Microsome
# Cond: read-out: CLH
As shown below, each of these molecules has a reported CLint scaled value.
I only need the number, in mL/min/kg, no unit after it.

C[C@@H]1Cc2nn3c(c2CN1C(=O)Nc1ccc(F)c(C#N)c1)C(=O)N(C)C[C@@H](F)C3 44

For the next question, use this molecule.
Qu. # query: CLint scaled of entry C[C@@H]1Cc2nn3c(c2CN1C(=O)Nc1ccc(F)c(C#N)c1)C(=O)N(C)C[C@H](F)C3
Ans. 31

* * *

# Experiment Description: Half life in mouse at 10 mg/kg, po or 2.5 mg/kg, iv
# Type: ADME, organism-based
# Cond: in vivo
Recorded Endpoint: half-life (min)
I only need the number, in min, no unit after it.

Qu. # query: half-life of entry C[C@@H]1Cc2nn3c(c2CN1C(=O)Nc1ccc(F)c(C#N)c1)C(=O)N(C)C[C@@H](F)C3
Ans. 30.6

* * *

# Experiment Description: Cmax in rat at 5 mg/kg, po
# Assay type: ADME, organism-based
# Set-up: dose 5 mg/kg, route po
# Cond: in vivo
Recorded Endpoint: Cmax (ng/mL)
I only need the number, in ng/mL, no unit after it.

Qu. # query: Cmax of entry C[C@@H]1Cc2nn3c(c2CN1C(=O)Nc1ccc(F)c(C#N)c1)C(=O)N(C)C[C@@H](F)C3
Ans. 98

* * *

# Experiment Description: Protein binding in rat plasma
# Assay type: ADME, cell-free
# Cond: read-out: PPB (converted)
Recorded Endpoint: fraction unbound
No unit in the answer, only the number.

Qu. # query: fraction unbound of entry C[C@@H]1Cc2nn3c(c2CN1C(=O)Nc1ccc(F)c(C#N)c1)C(=O)N(C)C[C@@H](F)C3
Ans. 0.38

* * *

# Experiment Description: Cmax in mouse at 10 mg/kg, po
# Type: ADME, organism-based
# Design: dose 10 mg/kg, route po
# Cond: in vivo
Recorded Endpoint: Cmax (ng/mL)
I only need the number, in ng/mL, no unit after it.

Qu. # query: Cmax of entry C[C@@H]1Cc2nn3c(c2CN1C(=O)Nc1ccc(F)c(C#N)c1)C(=O)N(C)C[C@@H](F)C3
Ans. 1270
